Data origin, for the record: the Human Domainome abundance scans (Beltran et al. 2025)

B1: Protein S100-G, residues 1 to 79; numbered along this chain, P02633 (parent)
chain: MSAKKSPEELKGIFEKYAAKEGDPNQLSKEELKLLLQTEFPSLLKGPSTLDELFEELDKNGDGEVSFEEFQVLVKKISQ

variants of: B1; experiment: abundance fitness (aPCA) (normalised: wild type 0, dead -1); higher = more abundant; growth selection in yeast, the domain comes from the species named; details: Bos taurus
Values of abundance fitness greater than or equal to -0.04 map to 1.0; values below map to 0.0.

(Q) Quick check: does MSAKKSPEELKGIFEKYAAKEGDPNQLSKEELKLLLQTEFPSKLKGPSTLDELFEELDKNGDGEVSFEEFQVLVKKISQ [L43K] have abundance fitness greater than or equal to -0.04?
(A) 1.0
